All values here come from patent US20230381229A1.

TARGET: T1, TIGIT (human)
T1 chain: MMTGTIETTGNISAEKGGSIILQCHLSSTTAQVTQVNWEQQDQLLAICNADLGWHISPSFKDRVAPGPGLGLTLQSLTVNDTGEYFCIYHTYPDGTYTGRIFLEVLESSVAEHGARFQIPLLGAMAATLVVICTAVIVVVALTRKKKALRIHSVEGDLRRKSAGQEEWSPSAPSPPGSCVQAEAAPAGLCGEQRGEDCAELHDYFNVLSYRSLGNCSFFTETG
ASSAY PROCEDURE: cell-based or functional assay
MEASURED PARAMETER: IL-2 luciferase reporter, Normalized Fold Change from CD155-ECD (fold)

[[record]]
binder = "variant CD155 IgV-Fc V10F, T15S, P18L, R48Q, L79P, F91S, T107M, V115M (Fc fusion) WPPPGTGDVFVQAPSQVLGFLGDSVTLPCYLQVPNMEVTHVSQLTWAQHGESGSMAVFHQTQGPSYSESKRLEFVAARPGAELRNASLRMSGLRVEDEGNYTCLFVMFPQGSRSMDIWLRVLGSGGGGSEPKSSDKTHTCPPCPAPEAEGAPSVFLFPPKPKDTLMISRTPEVTCVVVDVSHEDPEVKFNWYVDGVEVHNAKTKPREEQYNSTYRVVSVLTVLHQDWLNGKEYKCKVSNKALPAPIEKTISKAKGQPREPQVYTLPPSRDELTKNQVSLTCLVKGFYPSDIAVEWESNGQPENNYKTTPPVLDSDGSFFLYSKLTVDKSRWQQGNVFSCSVMHEALHNHYTQKSLSLSPGK"
val = -3.4

